These data points were gathered from patent US20210139517A1.

# Tested on: SOS1 function in cells: cellular pERK in PC-9 cells (EGFR Ex19Del)
# experimental-protocol: pERK potency assay in PC-9 cells (AlphaLISA SureFire Ultra p-ERK1/2)
# Format: cell-based
# condition-notes: 1 hour incubation
Can you tell me IC50 for the items I'm about to list?
Field note: include the unit after the figure.

# input # lookup: IC50 of CO[C@]1(c2cc3c(N[C@H](C)c4cccc5c4OCC5(F)F)ncnc3n(C)c2=O)CCN(C(C)=O)C1
# output 0.028 µM

# input # lookup: IC50 of CC(=O)N1CCC(c2cc3c(N[C@H](C)c4cccc5c4CCC5(F)F)ncnc3n(C)c2=O)CC1
# output 0.0344 µM

# input # lookup: IC50 of Cc1nc(N[C@H](C)c2cccc(C(F)F)c2F)c2cc(C3CCS(=O)(=O)CC3)c(=O)n(C)c2n1
# output 0.138 µM

# input # lookup: IC50 of C[C@@H](Nc1ncnc2c1cc(C1(O)CCN(C)CC1)c(=O)n2C)c1cccc(C(F)F)c1F
# output 0.187 µM

# input # lookup: IC50 of COC1(c2cc3c(N[C@H](C)c4cccc(C(F)F)c4F)ncnc3n(C)c2=O)CC2CS(=O)(=O)CC2C1 (stereo partly shown) [Example 32-84]
# output 0.173 µM

# input # lookup: IC50 of COC1(c2cc3c(N[C@H](C)c4cccc(C(F)F)c4C)ncnc3n(C)c2=O)CCN(C(C)=O)CC1
# output 0.0134 µM

# input # lookup: IC50 of C[C@@H](Nc1ncnc2c1cc(C1CCN(C(=O)CO)CC1)c(=O)n2C)c1cccc(C(F)F)c1F
# output 0.0615 µM

---

# measured-on: SOS1 nucleotide exchange of wild-type KRAS (SOS1 catalytic domain residues 564-1049; KRAS residue 1-169) (Homo sapiens, UniProt Q07889)
# experimental-protocol: Inhibition of SOS1 nucleotide exchange activity of KRAS (TR-FRET)
# Type: biochemical
# condition-notes: SOS1 nucleotide exchange of wild-type KRAS; three replicates; four-parameter logistic fit; read-out: TR-FRET IC50
Rule: IC50 below 90 nM gives T. Equal to or above 90 nM gives F.

# input Check if IC50 falls below 90 nM for C[C@@H](Nc1ncnc2c1cc(-c1ccnnc1)c(=O)n2C)c1cccc(C(F)F)c1F [Example 21] .
# output T

# input Check if IC50 falls below 90 nM for C[C@@H](Nc1ncnc2c1cc(C1=CCOCC1)c(=O)n2C)c1cccc(C(F)(F)F)c1 [Example 5] .
# output F

# input Check if IC50 falls below 90 nM for C[C@@H](Nc1ncnc2c1cc(N1CCOCC1)c(=O)n2C)c1cccc(C(F)(F)F)c1 [Example 13] .
# output T

# input Check if IC50 falls below 90 nM for C[C@@H](Nc1ncnc2c1cc(C1CCNCC1O)c(=O)n2C)c1cccc(C(F)F)c1F (stereo partly drawn) [Example 34] .
# output T

# input Check if IC50 falls below 90 nM for Cc1nc(N[C@H](C)c2cccc(C(F)F)c2F)c2cc(CN3CCOCC3)c(=O)n(C)c2n1 [Example 27] .
# output F

---

# measured-on: SOS1 catalytic domain (residues 564-1049) (Homo sapiens, UniProt Q07889)
# experimental-protocol: SOS1 SPR binding affinity assay (Biacore 8K)
# condition-notes: avi-tagged SOS1 catalytic domain immobilized on streptavidin chip; equilibrium 1:1 binding fit; read-out: SOS1 SPR Equilibrium Kd
quantity-name: pKd
Recall that pKd is obtained by taking minus log10 of the concentration measured in molar.

# input # lookup: pKd of C[C@@H](Nc1ncnc2c1cc(C1CC[S+]([O-])CC1)c(=O)n2C)c1cccc(C(F)F)c1F (stereo partly shown) [Example 25]
# output 7.71

# input # lookup: pKd of C[C@@H](Nc1ncnc2c1cc(C1(O)CCS(=O)(=O)CC1)c(=O)n2C)c1cccc(C(F)F)c1F [Example 28]
# output 7.35

# input # lookup: pKd of C[C@@H](Nc1ncnc2c1cc(C1(N)CCOCC1)c(=O)n2C)c1cccc(C(F)F)c1F [Example 31]
# output 7.37

# input # lookup: pKd of C[C@@H](Nc1ncnc2c1cc(C1=CC[S+]([O-])CC1)c(=O)n2C)c1cccc(C(F)F)c1F (stereo partly shown) [Example 22]
# output 7.47

# input # lookup: pKd of C[C@@H](Nc1ncnc2c1cc(C(=O)N1CC3CCC1CO3)c(=O)n2C)c1cccc(C(F)F)c1F (stereo partly shown) [Example 26-18]
# output 6.82

# input # lookup: pKd of C[C@@H](Nc1ncnc2c1cc(N1CCOCC1)c(=O)n2C)c1cccc(C(F)(F)CO)c1 [Example 2]
# output 8.13

# input # lookup: pKd of CO[C@]1(c2cc3c(N[C@H](C)c4cccc(C(F)F)c4F)ncnc3n(C)c2=O)CCN(C(C)=O)C1 [Example 32-19]
# output 8.16

---

# measured-on: SOS1 catalytic domain (residues 564-1049) (Homo sapiens, UniProt Q07889)
# experimental-protocol: SOS1 SPR binding affinity assay (Biacore 8K)
# condition-notes: avi-tagged SOS1 catalytic domain immobilized on streptavidin chip; equilibrium 1:1 binding fit; read-out: SOS1 SPR Equilibrium Kd
quantity-name: pKd
Recall that pKd is obtained by taking minus log10 of the concentration measured in molar.

# input # lookup: pKd of CC(=O)N1CCC(c2cc3c(N[C@H](C)c4cc(N)cc(C(F)(F)F)c4F)ncnc3n(C)c2=O)CC1 [Example 19]
# output 7.49

# input # lookup: pKd of C[C@@H](Nc1ncnc2c1cc(C1CC3(C1)CS(=O)(=O)C3)c(=O)n2C)c1cccc(C(F)F)c1F [Example 33]
# output 7.48

# input # lookup: pKd of C[C@@H](Nc1ncnc2c1cc(C1=CCS(=N)(=O)CC1)c(=O)n2C)c1cccc(C(F)F)c1F (stereo partly shown) [Example 23]
# output 7.70

# input # lookup: pKd of COC1(c2cc3c(N[C@H](C)c4cccc(C(F)F)c4F)ncnc3n(C)c2=O)CCS(=O)(=O)CC1 [Example 32]
# output 7.40

---

# measured-on: SOS1 catalytic domain (residues 564-1049) (Homo sapiens)
# Sequence (Q07889 564-1049): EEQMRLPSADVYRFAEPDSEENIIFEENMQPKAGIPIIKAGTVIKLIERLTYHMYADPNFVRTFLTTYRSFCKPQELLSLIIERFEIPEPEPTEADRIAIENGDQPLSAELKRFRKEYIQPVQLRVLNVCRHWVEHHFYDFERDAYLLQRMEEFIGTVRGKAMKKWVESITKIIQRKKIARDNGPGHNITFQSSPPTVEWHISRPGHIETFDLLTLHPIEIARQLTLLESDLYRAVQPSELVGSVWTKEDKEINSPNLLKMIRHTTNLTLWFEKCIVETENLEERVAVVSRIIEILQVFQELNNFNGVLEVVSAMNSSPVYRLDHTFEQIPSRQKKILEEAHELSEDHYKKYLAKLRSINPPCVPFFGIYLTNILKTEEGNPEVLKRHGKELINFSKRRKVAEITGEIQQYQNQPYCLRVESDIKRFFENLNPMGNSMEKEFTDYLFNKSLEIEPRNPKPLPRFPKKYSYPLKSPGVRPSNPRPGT
# experimental-protocol: SOS1 SPR binding affinity assay (Biacore 8K)
quantity-name: pKd
Recall that pKd is obtained by taking minus log10 of the concentration measured in molar.

# input Fill in the recorded pKd for this compound, with SOS1 catalytic domain (residues 564-1049) (Homo sapiens) as test system: Cc1nc(N[C@H](C)c2cccc(C(F)(F)CO)c2)c2cc(C3=CCNCC3)c(=O)n(C)c2n1 [Example 4]
# output 8.10

---

# measured-on: SOS1 nucleotide exchange of wild-type KRAS (SOS1 catalytic domain residues 564-1049; KRAS residue 1-169) (Homo sapiens)
# experimental-protocol: Inhibition of SOS1 nucleotide exchange activity of KRAS (TR-FRET)
# Format: biochemical
quantity-name: IC50

# input # lookup: IC50 of Cc1nc(N[C@H](C)c2cccc(C(F)(F)CO)c2)c2cc(C3=CCNCC3)c(=O)n(C)c2n1
# output 10.8 nM

---

# System: SOS1 function in cells: cellular pERK in PC-9 cells (EGFR Ex19Del)
# experimental-protocol: pERK potency assay in PC-9 cells (AlphaLISA SureFire Ultra p-ERK1/2)
# Assay type: cell-based
# condition-notes: 1 hour incubation
Rule: IC50 below 200 nM gives label 1. Equal to or above 200 nM gives label 0.

# input Check if IC50 falls below 200 nM for C[C@@H](Nc1ncnc2c1cc(-c1ccc[nH]1)c(=O)n2C)c1cccc(C(F)F)c1F [Example 21-1] .
# output label 0

# input Check if IC50 falls below 200 nM for C[C@@H](Nc1ncnc2c1cc(C1CCN(CCF)CC1)c(=O)n2C)c1cccc(C(F)F)c1F [Example 8-4] .
# output label 0

# input Check if IC50 falls below 200 nM for COc1ncccc1-c1cc2c(N[C@H](C)c3cccc(C(F)F)c3F)ncnc2n(C)c1=O [Example 21-7] .
# output label 1

# input Check if IC50 falls below 200 nM for COC1(c2cc3c(N[C@H](C)c4cccc(C(F)F)c4F)ncnc3n(C)c2=O)CCCN(C(C)=O)C1 (some centres unmarked) [Example 32-68] .
# output label 1

# input Check if IC50 falls below 200 nM for COC1(c2cc3c(N[C@H](C)c4cccc(C(F)F)c4F)ncnc3n(C3CC3)c2=O)CCN(C(C)=O)CC1 [Example 11-4] .
# output label 1

# input Check if IC50 falls below 200 nM for Cc1nc(N[C@H](C)c2cccc(C(F)F)c2F)c2cc(C3CCN(CC(F)(F)F)CC3)c(=O)n(C)c2n1 [Example 8-17] .
# output label 0

# input Check if IC50 falls below 200 nM for COC1(c2cc3c(N[C@H](C)c4cccc(C(F)F)c4F)ncnc3n(C)c2=O)CC2CS(=O)(=O)CC2C1 (some centres unmarked) [Example 32-85] .
# output label 1

# input Check if IC50 falls below 200 nM for Cc1nc(N[C@H](C)c2cccc(C(F)F)c2F)c2cc(-c3ccnnc3)c(=O)n(C)c2n1 [Example 21-3] .
# output label 1

# input Check if IC50 falls below 200 nM for C[C@@H](Nc1ncnc2c1cc(Cc1ccccc1)c(=O)n2C)c1cccc(C(F)F)c1F [Example 20-2] .
# output label 0

# input Check if IC50 falls below 200 nM for COc1ccc(Cc2cc3c(N[C@H](C)c4cccc(C(F)F)c4F)nc(C)nc3n(C)c2=O)cc1OC [Example 20-1] .
# output label 0

# input Check if IC50 falls below 200 nM for COC1(c2cc3c(N[C@H](C)c4cccc(C(F)F)c4F)ncnc3n(C)c2=O)CCN(C(C)=O)[C@@H]1C (some centres unmarked) [Example 32-101] .
# output label 0
